# testSystem: T1, human gpNMB (Human Osteoactivin, His-tag, AcroBioSystems) (human, UniProt Q14956-2 23-486, limits assumed)
# T1 sequence (looked up): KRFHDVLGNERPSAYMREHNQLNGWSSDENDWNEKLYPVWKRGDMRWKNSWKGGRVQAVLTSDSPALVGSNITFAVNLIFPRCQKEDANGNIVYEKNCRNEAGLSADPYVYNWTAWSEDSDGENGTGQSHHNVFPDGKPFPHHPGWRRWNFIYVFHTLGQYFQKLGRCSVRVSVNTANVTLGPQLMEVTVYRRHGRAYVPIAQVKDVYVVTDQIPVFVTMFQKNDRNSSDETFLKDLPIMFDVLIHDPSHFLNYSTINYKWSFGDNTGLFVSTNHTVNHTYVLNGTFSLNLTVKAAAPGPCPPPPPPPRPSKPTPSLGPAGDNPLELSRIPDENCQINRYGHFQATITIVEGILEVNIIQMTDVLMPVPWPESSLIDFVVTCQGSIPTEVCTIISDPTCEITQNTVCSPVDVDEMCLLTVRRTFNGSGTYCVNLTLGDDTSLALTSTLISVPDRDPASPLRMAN
# procedureText: SPR Biacore 8K, antibody captured on protein A, gpNMB as analyte

binder	displayUnit	koff
hGPN18-5_H1L2 (antibody, V domains shown, humanized; also called hGPN18-5_VH1+VL2) VH: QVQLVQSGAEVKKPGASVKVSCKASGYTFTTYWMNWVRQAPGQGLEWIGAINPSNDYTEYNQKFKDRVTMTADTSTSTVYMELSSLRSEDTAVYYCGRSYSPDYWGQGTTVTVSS VL: DIQMTQSPSSLSASVGDRVTITCKASQNVDNHVAWFQQKPGKAPKALIYSASYRYSGVPDRFSGSGSGTDFTLTISSLQPEDFATYFCQQYKSYPFTFGGGTKLEIK	s⁻¹	0.00396
hGPN18-5_H3L3 (antibody, V domains shown, humanized; also called hGPN18-5_VH3+VL3) VH: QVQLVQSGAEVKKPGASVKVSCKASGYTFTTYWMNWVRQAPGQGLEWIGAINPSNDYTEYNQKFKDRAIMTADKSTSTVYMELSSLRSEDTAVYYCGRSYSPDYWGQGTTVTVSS VL: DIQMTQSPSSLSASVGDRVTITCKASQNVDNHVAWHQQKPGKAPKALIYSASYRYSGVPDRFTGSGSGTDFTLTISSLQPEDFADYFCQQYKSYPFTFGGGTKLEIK	s⁻¹	0.00201
hGPN18-5_H3L1 (antibody, V domains shown, humanized; also called hGPN18-5 VH3+VL1) VH: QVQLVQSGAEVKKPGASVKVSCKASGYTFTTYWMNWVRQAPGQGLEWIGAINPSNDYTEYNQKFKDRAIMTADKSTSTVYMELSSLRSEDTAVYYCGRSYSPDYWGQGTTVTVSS VL: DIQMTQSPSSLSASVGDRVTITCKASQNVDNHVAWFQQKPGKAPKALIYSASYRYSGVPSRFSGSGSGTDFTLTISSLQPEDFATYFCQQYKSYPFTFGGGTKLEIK	s⁻¹	0.00484

Origin of the recorded values: patent EP4772193A1
